- target: RLuc8.6-535 (Renilla reniformis, UniProt P27652, A123S/A143M/A55T/C124A/D154M/D162E/E155G/I163L/K136R/M185L/M253L/S130A/S287L)
- Sequence (P27652 whole entry A55T/A123S/C124A/S130A/K136R/A143M/D154M/E155G/D162E/I163L/M185L/M253L/S287L): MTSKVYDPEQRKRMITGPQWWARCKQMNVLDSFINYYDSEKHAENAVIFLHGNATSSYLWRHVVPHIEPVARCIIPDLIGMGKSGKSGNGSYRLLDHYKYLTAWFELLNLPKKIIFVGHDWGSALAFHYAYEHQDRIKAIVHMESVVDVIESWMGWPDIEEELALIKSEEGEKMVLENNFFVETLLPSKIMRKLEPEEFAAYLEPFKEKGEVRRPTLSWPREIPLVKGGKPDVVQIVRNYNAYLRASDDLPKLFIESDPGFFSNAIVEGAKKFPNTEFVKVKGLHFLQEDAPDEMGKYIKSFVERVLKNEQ
- Format: biochemical
- Parameters: expressed in transfected cells; host or cells: COST cells (so in the source)
- particulars: bioluminescence spectrum, ATTO LumiFL
assay metric: RLuc8.6-535 maximum luminescence wavelength (nm)
Respond numerically; units are nm and should not be typed.

[Q] RLuc8.6-535 maximum luminescence wavelength (nm) for COCc1ccc(-c2cn3c(=O)c(Cc4ccc(O)cc4)nc-3c(Cc3ccccc3)[nH]2)cc1 [Example 6-Ether-CTZ, reference compound] ?
[A] 411

[Q] Which RLuc8.6-535 maximum luminescence wavelength (nm) is listed for CCc1ccc(-c2cn3c(=O)c(Cc4ccc(O)cc4)nc-3c(Cc3ccccc3)[nH]2)cc1 ?
[A] 406

[Q] Endpoint output: RLuc8.6-535 maximum luminescence wavelength (nm) of O=c1c(Cc2ccc(O)cc2)nc2c(Cc3ccccc3)[nH]c(-c3ccc(OCCCO)cc3)cn1-2 . Value?
[A] 415

[Q] I am curious: what RLuc8.6-535 maximum luminescence wavelength (nm) value has been reported for O=c1c(Cc2ccccc2)nc2c(Cc3ccccc3)[nH]c(-c3ccc(OCCCCO)cc3)cn1-2 ?
[A] 405

[Q] Entry Cc1ccc(-c2cn3c(=O)c(Cc4ccccc4)nc-3c(Cc3ccccc3)[nH]2)cc1 : reported RLuc8.6-535 maximum luminescence wavelength (nm) = ?
[A] 411

[Q] Given the compound O=c1c(Cc2ccc(O)cc2)nc2c(Cc3ccccc3)[nH]c(-c3ccc(OCCO)cc3)cn1-2 , what is its reported RLuc8.6-535 maximum luminescence wavelength (nm)?
[A] 411

[Q] Suppose we examine the compound O=c1c(Cc2ccccc2)nc2c(Cc3ccccc3)[nH]c(-c3ccc(OCCCO)cc3)cn1-2 ; what RLuc8.6-535 maximum luminescence wavelength (nm) value has been reported?
[A] 413

----------
- target: RLuc8.6-535 (Renilla reniformis, UniProt P27652, A123S/A143M/A55T/C124A/D154M/D162E/E155G/I163L/K136R/M185L/M253L/S130A/S287L)
- Type: biochemical
- Parameters: expressed in transfected cells; host or cells: COST cells (so in the source)
- particulars: 2 μM substrate in PBS pH 7.4, cell lysate, maximum intensity over 1 second, relative value
- Excerpt: The luciferases were respectively expressed in COST cells using an expression vector (pcDNA3.1(+), commercially available from Invitrogen) comprising the sequence encoding native Renilla Luciferase (RLuc) (trade name pGL4.75, commercially available from Promega) or an expression vector (trade name pcDNA3.1(+), commercially available from Invitrogen) comprising the sequence encoding a RLuc derivative RLuc8 or RLuc8.6-535 (Reference: Loening, A. M. et al., Nat. Methods, 2007, 4, 641-643.). […]
Would you mind telling me the reported RLuc8.6-535 luminescence intensity (%) of each entry?
Quick reminder: number only, in %, skip the unit.

[Q] Which RLuc8.6-535 luminescence intensity (%) is listed for CCCCOc1ccc(-c2cn3c(=O)c(Cc4ccccc4)nc-3c(Cc3ccccc3)[nH]2)cc1 ?
[A] 28.4

[Q] Find the recorded RLuc8.6-535 luminescence intensity (%) belonging to COCc1ccc(-c2cn3c(=O)c(Cc4ccccc4)nc-3c(Cc3ccccc3)[nH]2)cc1 [6-Ether-2H-CTZ, reference compound] and report it.
[A] 2.17

[Q] Reported RLuc8.6-535 luminescence intensity (%), molecule O=c1c(Cc2ccccc2)nc2c(Cc3ccccc3)[nH]c(-c3ccc(OCCO)cc3)cn1-2 : ____
[A] 6.24

[Q] Consider the molecule shown here: O=c1c(Cc2ccccc2)nc2c(Cc3ccccc3)[nH]c(-c3ccc(OCCCCO)cc3)cn1-2 What is its recorded RLuc8.6-535 luminescence intensity (%)?
[A] 23.9

[Q] What measured RLuc8.6-535 luminescence intensity (%) goes with O=c1c(Cc2ccc(O)cc2)nc2c(Cc3ccccc3)[nH]c(-c3ccc(OCCCO)cc3)cn1-2 ?
[A] 75.3

[Q] Would you kindly share the measured RLuc8.6-535 luminescence intensity (%) for O=c1c(Cc2ccc(O)cc2)nc2c(Cc3ccccc3)[nH]c(-c3ccc(OCCO)cc3)cn1-2 ?
[A] 43.2

[Q] Please look up its RLuc8.6-535 luminescence intensity (%): Oc1ccc(Cc2nc3c(Cc4ccccc4)nc(-c4ccc(O)cc4)cn3c2O)cc1
[A] 100

[Q] Query: RLuc8.6-535 luminescence intensity (%); subject: O=c1c(Cc2ccccc2)nc2c(Cc3ccccc3)[nH]c(-c3ccc(OCCCCCO)cc3)cn1-2
[A] 18.0

[Q] Looking for the measured RLuc8.6-535 luminescence intensity (%) of O=c1c(Cc2ccc(O)cc2)nc2c(Cc3ccccc3)[nH]c(-c3ccc(OCCCCO)cc3)cn1-2 , can you help?
[A] 59.8

[Q] // query RLuc8.6-535 luminescence intensity (%) value for entry O=c1c(Cc2ccccc2)nc2c(Cc3ccccc3)[nH]c(-c3ccccc3)cn1-2 [DeepBlueC (trade name), reference compound]
[A] 5.80
